molecular target: IKKe (Homo sapiens (Human), UniProt Q14164); assay: IKKe kinase selectivity assay; type: biochemical; conditions: 1 μM inhibitor concentration
Sequence (Q14164 whole entry, species assumed): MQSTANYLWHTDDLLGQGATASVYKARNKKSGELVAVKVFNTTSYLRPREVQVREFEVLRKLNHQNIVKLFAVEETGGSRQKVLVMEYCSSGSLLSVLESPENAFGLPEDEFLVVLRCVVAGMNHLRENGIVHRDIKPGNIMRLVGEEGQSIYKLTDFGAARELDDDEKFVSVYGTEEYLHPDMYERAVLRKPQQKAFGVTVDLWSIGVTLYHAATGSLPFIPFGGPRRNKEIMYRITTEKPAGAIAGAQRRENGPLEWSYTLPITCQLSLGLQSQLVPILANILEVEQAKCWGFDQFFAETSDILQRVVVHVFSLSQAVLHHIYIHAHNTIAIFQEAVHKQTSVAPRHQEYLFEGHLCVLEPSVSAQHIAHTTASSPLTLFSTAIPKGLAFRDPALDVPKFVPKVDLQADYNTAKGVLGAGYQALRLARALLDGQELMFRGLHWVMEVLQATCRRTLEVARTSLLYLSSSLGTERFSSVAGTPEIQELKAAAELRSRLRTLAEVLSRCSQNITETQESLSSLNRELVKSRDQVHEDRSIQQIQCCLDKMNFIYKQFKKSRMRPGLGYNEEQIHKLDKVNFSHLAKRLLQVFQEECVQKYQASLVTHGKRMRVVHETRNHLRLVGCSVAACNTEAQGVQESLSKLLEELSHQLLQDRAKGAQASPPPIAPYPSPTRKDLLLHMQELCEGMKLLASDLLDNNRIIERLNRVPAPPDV
# percentage inhibition of IKKe per record follows
Your answer is read as percentage, so omit the unit and give the number.

Past entries and their recorded results:
*Q* Which measured percentage inhibition of IKKe value corresponds to c1cc2[nH]nc3c2c(n1)N(C1CCCC1)CCC3 ?
*A* 0

*Q* Which measured percentage inhibition of IKKe value corresponds to c1cc2[nH]nc3c2c(n1)N(C1CCC1)CCC3 ?
*A* 0

*Q* Which measured percentage inhibition of IKKe value corresponds to c1cc2[nH]nc3c2c(n1)N(C1CCOCC1)CCC3 ?
*A* 9

*Q* Which measured percentage inhibition of IKKe value corresponds to CC(C)n1ncc2c1CN(C1CCN(C)CC1)c1nccc3[nH]nc-2c13 ?
*A* 0

Consider now this further compound.
*Q* Which measured percentage inhibition of IKKe value corresponds to CN1CCC(N2Cc3ccccc3-c3n[nH]c4ccnc2c34)CC1 ?
*A* 5

---

biological target: JAK2 (Homo sapiens (Human), UniProt O60674)
IC50 strictly less than 5 µM = Yes. Otherwise No.

*Q* Does this molecule meet the criterion IC50 < 5 µM? CC(C)n1cc2c(n1)CN(C1CCOCC1)c1nccc3[nH]nc-2c13
*A* Yes

// switching to the query molecule
*Q* Does this molecule meet the criterion IC50 < 5 µM? CCn1cc2c(n1)CN(C1CCN(C(C)C)CC1)c1nccc3[nH]nc-2c13
*A* Yes

---

# percentage inhibition of PLK1 per record follows
molecular target: PLK1 (Homo sapiens (Human), UniProt P53350); test: PLK1 kinase selectivity assay; assay type: biochemical; conditions: 1 μM inhibitor concentration
Sequence (P53350 whole entry, species assumed): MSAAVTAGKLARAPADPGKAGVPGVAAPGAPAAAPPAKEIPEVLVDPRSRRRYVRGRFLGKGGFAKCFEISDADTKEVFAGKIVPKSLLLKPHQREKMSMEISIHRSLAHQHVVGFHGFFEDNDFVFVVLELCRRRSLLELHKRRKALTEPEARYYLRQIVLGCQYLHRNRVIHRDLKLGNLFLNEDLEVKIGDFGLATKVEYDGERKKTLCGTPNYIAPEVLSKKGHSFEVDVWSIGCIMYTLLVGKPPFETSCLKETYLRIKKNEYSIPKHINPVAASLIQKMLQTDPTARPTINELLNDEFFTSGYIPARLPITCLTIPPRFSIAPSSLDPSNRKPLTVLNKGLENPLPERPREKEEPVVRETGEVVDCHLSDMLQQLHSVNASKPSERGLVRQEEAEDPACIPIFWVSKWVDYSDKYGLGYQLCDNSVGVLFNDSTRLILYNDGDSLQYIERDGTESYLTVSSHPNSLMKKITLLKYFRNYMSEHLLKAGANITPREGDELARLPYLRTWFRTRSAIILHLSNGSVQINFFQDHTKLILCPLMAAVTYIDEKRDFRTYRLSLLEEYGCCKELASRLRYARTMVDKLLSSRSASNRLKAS
Your answer is read as percentage, so omit the unit and give the number.

Past entries and their recorded results:
*Q* Which measured percentage inhibition of PLK1 value corresponds to c1cc2[nH]nc3c2c(n1)N(C1CCC1)CCC3 ?
*A* 4

*Q* Which measured percentage inhibition of PLK1 value corresponds to c1cc2[nH]nc3c2c(n1)N(C1CCOCC1)CCC3 ?
*A* 0

*Q* Which measured percentage inhibition of PLK1 value corresponds to c1cc2[nH]nc3c2c(n1)N(C1CCCC1)CCC3 ?
*A* 3

*Q* Which measured percentage inhibition of PLK1 value corresponds to CC(C)n1ncc2c1CN(C1CCN(C)CC1)c1nccc3[nH]nc-2c13 ?
*A* 21

More entries:
*Q* Which measured percentage inhibition of PLK1 value corresponds to CN1CCC(N2Cc3ccccc3-c3n[nH]c4ccnc2c34)CC1 ?
*A* 28

---

target: PAK4 (Homo sapiens (Human), UniProt O96013); assay: PAK4 kinase selectivity assay; type: biochemical; settings: 1 μM inhibitor concentration
Sequence (O96013 whole entry, species assumed): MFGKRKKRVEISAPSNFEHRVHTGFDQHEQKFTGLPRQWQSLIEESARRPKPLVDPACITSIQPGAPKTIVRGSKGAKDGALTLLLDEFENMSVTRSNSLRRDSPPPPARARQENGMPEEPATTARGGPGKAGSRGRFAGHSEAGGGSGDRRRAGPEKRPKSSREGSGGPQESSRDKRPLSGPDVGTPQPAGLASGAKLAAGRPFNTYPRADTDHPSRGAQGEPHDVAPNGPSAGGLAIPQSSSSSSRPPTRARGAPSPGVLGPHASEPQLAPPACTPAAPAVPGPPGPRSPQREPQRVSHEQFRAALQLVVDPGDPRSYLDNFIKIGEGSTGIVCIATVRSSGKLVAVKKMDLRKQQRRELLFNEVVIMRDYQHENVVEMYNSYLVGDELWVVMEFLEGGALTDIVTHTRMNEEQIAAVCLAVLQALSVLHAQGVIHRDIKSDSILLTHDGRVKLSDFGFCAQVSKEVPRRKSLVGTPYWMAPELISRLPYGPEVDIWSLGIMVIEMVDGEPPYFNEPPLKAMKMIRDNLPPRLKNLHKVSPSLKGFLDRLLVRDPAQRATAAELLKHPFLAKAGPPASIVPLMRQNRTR
# percentage inhibition of PAK4 per record follows
Your answer is read as percentage, so omit the unit and give the number.

*Q* Which measured percentage inhibition of PAK4 value corresponds to c1cc2[nH]nc3c2c(n1)N(C1CCCC1)CCC3 [Example 23] ?
*A* 0

*Q* Which measured percentage inhibition of PAK4 value corresponds to c1cc2[nH]nc3c2c(n1)N(C1CCOCC1)CCC3 [Example 29] ?
*A* 7

*Q* Which measured percentage inhibition of PAK4 value corresponds to CN1CCC(N2Cc3ccccc3-c3n[nH]c4ccnc2c34)CC1 [Example 55] ?
*A* 20

More entries:
*Q* Which measured percentage inhibition of PAK4 value corresponds to CC(C)n1ncc2c1CN(C1CCN(C)CC1)c1nccc3[nH]nc-2c13 [Example 68] ?
*A* 25

*Q* Which measured percentage inhibition of PAK4 value corresponds to c1cc2[nH]nc3c2c(n1)N(C1CCC1)CCC3 [Example 22] ?
*A* 6

---

biological target: PKBb (Homo sapiens (Human), UniProt P31751, S474D); experiment: PKBb kinase selectivity assay; format: biochemical; conditions: 1 μM inhibitor concentration
Sequence (P31751 120-481 S474D): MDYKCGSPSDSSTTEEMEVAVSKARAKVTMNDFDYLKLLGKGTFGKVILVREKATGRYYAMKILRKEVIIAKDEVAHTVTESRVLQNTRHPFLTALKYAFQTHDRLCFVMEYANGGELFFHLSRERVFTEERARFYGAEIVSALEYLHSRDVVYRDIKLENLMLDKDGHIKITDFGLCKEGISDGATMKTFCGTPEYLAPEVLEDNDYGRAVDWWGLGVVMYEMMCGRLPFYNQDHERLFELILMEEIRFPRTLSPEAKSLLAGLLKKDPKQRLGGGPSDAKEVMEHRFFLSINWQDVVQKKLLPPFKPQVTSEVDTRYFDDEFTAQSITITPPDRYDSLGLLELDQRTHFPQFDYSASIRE
Readout Kind: percentage inhibition of PKBb
The reply should consist of the numeric value with the unit placed after it.

Past entries and their recorded results:
*Q* Record c1cc2[nH]nc3c2c(n1)N(C1CCC1)CCC3 : what is its percentage inhibition of PKBb with PKBb (Homo sapiens (Human), UniProt P31751, S474D)?
*A* 0 percentage

*Q* Record CC(C)n1ncc2c1CN(C1CCN(C)CC1)c1nccc3[nH]nc-2c13 : what is its percentage inhibition of PKBb with PKBb (Homo sapiens (Human), UniProt P31751, S474D)?
*A* 9 percentage

*Q* Record c1cc2[nH]nc3c2c(n1)N(C1CCCC1)CCC3 : what is its percentage inhibition of PKBb with PKBb (Homo sapiens (Human), UniProt P31751, S474D)?
*A* 0 percentage

*Q* Record CN1CCC(N2Cc3ccccc3-c3n[nH]c4ccnc2c34)CC1 : what is its percentage inhibition of PKBb with PKBb (Homo sapiens (Human), UniProt P31751, S474D)?
*A* 10 percentage

Consider now this further compound.
*Q* Record c1cc2[nH]nc3c2c(n1)N(C1CCOCC1)CCC3 : what is its percentage inhibition of PKBb with PKBb (Homo sapiens (Human), UniProt P31751, S474D)?
*A* 0 percentage

---

target: UniProtKB Q02750; test: MKK1 kinase selectivity assay; assay type: biochemical; conditions: 1 μM inhibitor concentration
Sequence (Q02750 whole entry, species assumed): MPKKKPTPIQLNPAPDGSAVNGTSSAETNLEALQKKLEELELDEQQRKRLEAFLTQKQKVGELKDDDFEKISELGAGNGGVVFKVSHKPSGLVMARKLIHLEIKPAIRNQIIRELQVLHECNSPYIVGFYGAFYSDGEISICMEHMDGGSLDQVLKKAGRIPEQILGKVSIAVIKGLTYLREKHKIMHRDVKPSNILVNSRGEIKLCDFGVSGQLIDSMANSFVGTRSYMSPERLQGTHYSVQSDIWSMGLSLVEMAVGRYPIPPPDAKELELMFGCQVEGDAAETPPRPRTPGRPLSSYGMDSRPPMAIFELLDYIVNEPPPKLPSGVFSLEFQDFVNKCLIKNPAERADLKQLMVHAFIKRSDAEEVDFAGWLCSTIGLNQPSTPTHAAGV
Readout Kind: percentage inhibition of MKK1 (percentage)
Your answer is read as percentage, so omit the unit and give the number.

Past entries and their recorded results:
*Q* Which measured percentage inhibition of MKK1 value corresponds to CN1CCC(N2Cc3ccccc3-c3n[nH]c4ccnc2c34)CC1 ?
*A* 65

*Q* Which measured percentage inhibition of MKK1 value corresponds to c1cc2[nH]nc3c2c(n1)N(C1CCOCC1)CCC3 ?
*A* 21

More entries:
*Q* Which measured percentage inhibition of MKK1 value corresponds to CC(C)n1ncc2c1CN(C1CCN(C)CC1)c1nccc3[nH]nc-2c13 ?
*A* 31

*Q* Which measured percentage inhibition of MKK1 value corresponds to c1cc2[nH]nc3c2c(n1)N(C1CCC1)CCC3 ?
*A* 15

*Q* Which measured percentage inhibition of MKK1 value corresponds to c1cc2[nH]nc3c2c(n1)N(C1CCCC1)CCC3 ?
*A* 0

---

# percentage inhibition of IKKb per record follows
molecular target: IKKb (Homo sapiens (Human)); experiment: IKKb kinase selectivity assay; format: biochemical; settings: 1 μM inhibitor concentration
Your answer is read as percentage, so omit the unit and give the number.

Past entries and their recorded results:
*Q* Which measured percentage inhibition of IKKb value corresponds to CC(C)n1ncc2c1CN(C1CCN(C)CC1)c1nccc3[nH]nc-2c13 ?
*A* 4

*Q* Which measured percentage inhibition of IKKb value corresponds to CN1CCC(N2Cc3ccccc3-c3n[nH]c4ccnc2c34)CC1 ?
*A* 6

*Q* Which measured percentage inhibition of IKKb value corresponds to c1cc2[nH]nc3c2c(n1)N(C1CCC1)CCC3 ?
*A* 2

More entries:
*Q* Which measured percentage inhibition of IKKb value corresponds to c1cc2[nH]nc3c2c(n1)N(C1CCOCC1)CCC3 ?
*A* 0

*Q* Which measured percentage inhibition of IKKb value corresponds to c1cc2[nH]nc3c2c(n1)N(C1CCCC1)CCC3 ?
*A* 0

---

target: MEKK1 (Homo sapiens (Human), UniProt Q13233); assay: MEKK1 kinase selectivity assay; type: biochemical; conditions: 1 μM inhibitor concentration
Sequence (Q13233 whole entry, species assumed): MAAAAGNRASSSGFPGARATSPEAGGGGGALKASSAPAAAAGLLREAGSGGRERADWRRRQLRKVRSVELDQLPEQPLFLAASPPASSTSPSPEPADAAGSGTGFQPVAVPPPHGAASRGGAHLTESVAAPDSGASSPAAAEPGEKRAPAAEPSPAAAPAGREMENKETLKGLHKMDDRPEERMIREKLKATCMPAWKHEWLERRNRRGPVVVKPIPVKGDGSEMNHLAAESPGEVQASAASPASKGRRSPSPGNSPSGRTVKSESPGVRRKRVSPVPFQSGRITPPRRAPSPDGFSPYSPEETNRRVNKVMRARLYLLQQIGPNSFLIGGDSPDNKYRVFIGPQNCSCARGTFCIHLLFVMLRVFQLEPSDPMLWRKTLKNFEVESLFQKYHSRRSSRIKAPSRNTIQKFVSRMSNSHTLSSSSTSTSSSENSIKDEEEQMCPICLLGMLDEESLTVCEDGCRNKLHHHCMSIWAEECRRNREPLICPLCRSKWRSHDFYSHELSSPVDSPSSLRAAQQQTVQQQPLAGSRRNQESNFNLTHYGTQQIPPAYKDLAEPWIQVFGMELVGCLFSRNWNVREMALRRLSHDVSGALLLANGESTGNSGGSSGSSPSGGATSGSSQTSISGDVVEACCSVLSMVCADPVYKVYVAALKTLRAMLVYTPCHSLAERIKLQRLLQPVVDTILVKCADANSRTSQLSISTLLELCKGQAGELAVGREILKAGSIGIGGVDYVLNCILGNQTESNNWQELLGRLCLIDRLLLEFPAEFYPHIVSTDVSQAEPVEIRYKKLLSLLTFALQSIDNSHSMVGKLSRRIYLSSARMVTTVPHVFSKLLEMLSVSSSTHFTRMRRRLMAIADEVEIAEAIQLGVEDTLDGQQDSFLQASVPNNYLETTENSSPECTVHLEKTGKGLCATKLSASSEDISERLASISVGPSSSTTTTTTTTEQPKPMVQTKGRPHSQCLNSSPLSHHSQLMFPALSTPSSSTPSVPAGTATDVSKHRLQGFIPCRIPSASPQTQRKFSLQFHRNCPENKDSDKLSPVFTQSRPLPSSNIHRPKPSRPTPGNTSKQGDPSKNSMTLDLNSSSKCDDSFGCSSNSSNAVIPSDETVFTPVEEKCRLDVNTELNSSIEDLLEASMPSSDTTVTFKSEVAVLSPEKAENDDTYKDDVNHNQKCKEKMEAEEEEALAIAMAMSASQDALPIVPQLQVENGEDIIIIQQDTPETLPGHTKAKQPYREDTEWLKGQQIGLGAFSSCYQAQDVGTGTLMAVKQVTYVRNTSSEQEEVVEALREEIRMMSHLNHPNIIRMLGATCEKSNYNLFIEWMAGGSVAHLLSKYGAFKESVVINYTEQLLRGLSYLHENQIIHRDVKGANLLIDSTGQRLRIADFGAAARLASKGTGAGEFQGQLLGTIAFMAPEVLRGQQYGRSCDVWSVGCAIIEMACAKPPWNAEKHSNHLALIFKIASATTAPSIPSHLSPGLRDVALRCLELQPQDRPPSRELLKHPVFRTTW
# percentage inhibition of MEKK1 per record follows
Your answer is read as percentage, so omit the unit and give the number.

*Q* Which measured percentage inhibition of MEKK1 value corresponds to c1cc2[nH]nc3c2c(n1)N(C1CCOCC1)CCC3 [Example 29] ?
*A* 0

*Q* Which measured percentage inhibition of MEKK1 value corresponds to CC(C)n1ncc2c1CN(C1CCN(C)CC1)c1nccc3[nH]nc-2c13 [Example 68] ?
*A* 0

*Q* Which measured percentage inhibition of MEKK1 value corresponds to c1cc2[nH]nc3c2c(n1)N(C1CCC1)CCC3 [Example 22] ?
*A* 0

*Q* Which measured percentage inhibition of MEKK1 value corresponds to CN1CCC(N2Cc3ccccc3-c3n[nH]c4ccnc2c34)CC1 [Example 55] ?
*A* 5

More entries:
*Q* Which measured percentage inhibition of MEKK1 value corresponds to c1cc2[nH]nc3c2c(n1)N(C1CCCC1)CCC3 [Example 23] ?
*A* 0

---

# percentage inhibition of TAK1 per record follows
Target: TAK1 (Homo sapiens (Human), UniProt O43318)
Sequence (O43318 1-303): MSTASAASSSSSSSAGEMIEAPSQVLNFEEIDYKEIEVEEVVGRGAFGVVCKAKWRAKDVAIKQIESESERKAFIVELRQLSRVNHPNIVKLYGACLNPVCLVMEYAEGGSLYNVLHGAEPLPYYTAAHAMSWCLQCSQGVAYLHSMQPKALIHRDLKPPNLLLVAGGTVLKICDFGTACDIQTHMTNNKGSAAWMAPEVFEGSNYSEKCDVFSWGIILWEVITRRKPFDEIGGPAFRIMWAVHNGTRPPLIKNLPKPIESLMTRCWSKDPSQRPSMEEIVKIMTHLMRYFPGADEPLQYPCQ
Experiment: TAK1 kinase selectivity assay
Type: biochemical
Details: 1 μM inhibitor concentration
Procedure: TAK1 (5-20 mU diluted in 50 mM Tris pH 7.5, 0.1 mM EGTA, 1 mg/ml BSA) is assayed against a substrate peptide ([…]) in a final volume of 25.5 μl containing 50 mM Tris pH 7.5, 0.1 mM EGTA, 0.1% β-Mercaptoethanol, 300 μM substrate peptide, 10 mM magnesium acetate, 0.5 mM MnCl and 0.005 mM [33P-γ-ATP](50-1000 cpm/pmole) and incubated for 30 min at room temperature. […]
Your answer is read as percentage, so omit the unit and give the number.

Past entries and their recorded results:
*Q* Record c1cc2[nH]nc3c2c(n1)N(C1CCC1)CCC3 : what is its percentage inhibition of TAK1 with TAK1 (Homo sapiens (Human), UniProt O43318)?
*A* 64

*Q* Record CN1CCC(N2Cc3ccccc3-c3n[nH]c4ccnc2c34)CC1 : what is its percentage inhibition of TAK1 with TAK1 (Homo sapiens (Human), UniProt O43318)?
*A* 64

*Q* Record CC(C)n1ncc2c1CN(C1CCN(C)CC1)c1nccc3[nH]nc-2c13 : what is its percentage inhibition of TAK1 with TAK1 (Homo sapiens (Human), UniProt O43318)?
*A* 36

*Q* Record c1cc2[nH]nc3c2c(n1)N(C1CCCC1)CCC3 : what is its percentage inhibition of TAK1 with TAK1 (Homo sapiens (Human), UniProt O43318)?
*A* 49

Consider now this further molecule.
*Q* Record c1cc2[nH]nc3c2c(n1)N(C1CCOCC1)CCC3 : what is its percentage inhibition of TAK1 with TAK1 (Homo sapiens (Human), UniProt O43318)?
*A* 65
